test system: SN12C; experiment: NCI tumour cell line growth inhibition, 48 h
Active and inactive are the calls of the source. No stated cut-off is given here; in the data, active = GI50 up to about 1.1 µM and inactive = higher.
readoutName: GI50

Please fill in: GI50 reported for COc1ccc2c3c(coc13)C(CCC(=O)O)CC2 (stereo unspecified) = > 100 µM (inactive)

Please fill in: GI50 reported for O=C(Oc1c(I)ccccc1=O)c1ccc([N+](=O)[O-])cc1 = 20.4 µM (inactive)

Please fill in: GI50 reported for CC1(C)C(CCO)CC1n1cc(I)c(=O)[nH]c1=O (stereo unspecified) = > 100 µM (inactive)

Please fill in: GI50 reported for COc1cc2c(cc1OC)C(Cl)C(c1ccc(Br)cc1)=C2Cl (stereo unspecified) = 10.6 µM (inactive)

Please fill in: GI50 reported for O=C(O)CSCC(=O)Nc1ccc2cccc3c2c1CC3 = > 100 µM (inactive)

Please fill in: GI50 reported for COP(=O)(OC)OCN(C)CC/C=C(\C)CC/C=C(\C)CCC=C(C)C = 15.6 µM (inactive)

Please fill in: GI50 reported for Cc1nc(-c2nc(C)c(C(=O)/C=C/c3ccc(N(C)C)cc3)s2)sc1C(=O)/C=C/c1ccc(N(C)C)cc1 = > 100 µM (inactive)

Please fill in: GI50 reported for O=[N+]([O-])c1ccc(C2c3c(O)nc(S)nc3Oc3nc(S)nc(O)c32)cc1 = > 100 µM (inactive)

Please fill in: GI50 reported for COCC12CCC(OC)C34C5CC6(O)C(OC)CC(OC(C)=O)(C5C6OC(=O)c5ccccc5)C(C(OC)C13)C4N(C)C2 (stereo unspecified) = > 100 µM (inactive)

Please fill in: GI50 reported for N#Cc1c(-c2ccco2)cc(-c2ccccc2)nc1O = > 100 µM (inactive)

Please fill in: GI50 reported for Cc1ccc([Se][Se]c2ccc(C)cc2)cc1 = 26.7 µM (inactive)

---

tested on: RPMI-8226; assay: NCI tumour cell line growth inhibition, 48 h
Active and inactive are the calls of the source. Cut-off read from the data, not from the text of the source: active = GI50 up to about 1.1 µM and inactive = higher.
Use one of these outcomes when replying: active, inactive

Would you mind telling me which call this test gave CCOC(=O)/C(=C\c1cccc(C)c1)C(C)=O ?
inactive

Would you mind telling me which call this test gave S=C(Nc1ccccc1)c1ccc(CN2CCCCC2)s1 ?
inactive

Would you mind telling me which call this test gave CCOC(=O)C(O)(NC(=O)Nc1ccc(F)cc1)C(F)(F)F (configuration not stated) ?
inactive

Would you mind telling me which call this test gave C[C@H](CCc1nc(C#N)c(N)o1)[C@H]1CC[C@H]2[C@@H]3[C@@H](O)CC4C[C@@H](O)CC[C@]4(C)[C@H]3C[C@@H](O)[C@]12C (some centres not stated) ?
inactive

Would you mind telling me which call this test gave CCCN(CCC)C(=O)c1c(N2CCN(C)CC2)c2cccnc2n2c(C)cnc12 ?
inactive

Would you mind telling me which call this test gave O=C(O)C1=NN(c2ccc(S(=O)(=O)O)cc2)C2(C1)SCC(=O)N2c1nc2ccccc2s1 (configuration not stated) ?
inactive

Would you mind telling me which call this test gave CSc1nc(C#N)c(N)n1C ?
inactive

Would you mind telling me which call this test gave CCOC(=O)c1cc(/C=C/C(C)=C/C(=O)OC)oc1C ?
inactive

Would you mind telling me which call this test gave COc1cc2c(cc1OC)-c1cc3cc(OC)c(OC)cc3n1CC2 ?
inactive

Would you mind telling me which call this test gave CC1(C)c2ccccc2N2O[C@@H]3C(=O)N(c4ccccc4)C(=O)[C@@H]3C21c1ccccc1 (some centres not stated) ?
inactive

Would you mind telling me which call this test gave Cc1ccccc1N(CC(=O)O)S(=O)(=O)c1ccccc1 ?
inactive

Would you mind telling me which call this test gave CCN(CC)CCNC(=O)C1COc2ccc(-c3cc(=O)c4ccccc4o3)cc2O1 (configuration not stated) ?
inactive

Would you mind telling me which call this test gave CC(N/N=C(\S)N1CCCCCC1)c1cccnn1 (configuration not stated) ?
active

Would you mind telling me which call this test gave CCCC(c1cc(C(C)(C)C)c(O)cc1C)c1cc(C(C)(C)C)c(O)cc1C ?
inactive

Would you mind telling me which call this test gave Brc1cccc(C2SCc3nc4ccccc4n32)c1 (configuration not stated) ?
inactive

Would you mind telling me which call this test gave Clc1ccc(C2=Nc3ccccc3SC(c3cccs3)C2)cc1 (configuration not stated) ?
inactive

Would you mind telling me which call this test gave CCOC1c2nc3ccccc3nc2-c2ccccc2N1C(C)=O (configuration not stated) ?
inactive

Would you mind telling me which call this test gave COc1cc2c(cc1O)C(=O)O[C@@H]1CC=C3CCN(C)[C@H]3[C@H]21 ?
inactive

Would you mind telling me which call this test gave COc1cc(NS(=O)(=O)c2ccc(C)cc2)c2nccnc2c1 ?
inactive

Would you mind telling me which call this test gave COc1c2nc(CCl)[nH]c(=O)c2c(OC)c2nc(CCl)[nH]c(=O)c12 ?
inactive

Would you mind telling me which call this test gave COc1ccc([N+](=O)[O-])c2c(NCCCN(C)C)c(C)c(C)nc12 ?
inactive

Would you mind telling me which call this test gave CC1CC(N2CCOCC2)=Nc2ccccc2N1Cc1ccccc1 (configuration not stated) ?
inactive

Would you mind telling me which call this test gave CCCCC1c2c([nH]c3ccccc23)C2C(=O)N(c3ccc(OC)cc3)C(=O)C2C1CCC (configuration not stated) ?
inactive

Would you mind telling me which call this test gave N#CC1(C#N)C2(c3ccccc3)OC(c3ccccc3)(c3cc4ccccc4cc32)C1(C#N)C#N ?
inactive

Would you mind telling me which call this test gave COc1cc(/C=N\c2ccc(C(C)C)cc2)cc(OC)c1OC ?
inactive

Would you mind telling me which call this test gave COc1ccc(-c2csc3c2-n2cccc2C3=O)cc1 ?
active

Would you mind telling me which call this test gave O=C(O)C1C(=O)Oc2c(cccc2[N+](=O)[O-])C1O (configuration not stated) ?
inactive

Would you mind telling me which call this test gave COC1/C=C\OC2(C)Oc3c(C)c(O)c4c(O)c(c(CN(C)C)c(O)c4c3C2=O)NC(=O)/C(C)=C\C=C/C(C)C(O)C(C)C(O)C(C)C(OC(C)=O)C1C (configuration not stated) ?
inactive

Would you mind telling me which call this test gave CCNc1ncnc2nn[nH]c12 ?
inactive

Would you mind telling me which call this test gave COc1cc(C(c2cc3c(cc2O)OCO3)N2CCCC2)cc(OC)c1OC (configuration not stated) ?
inactive

Would you mind telling me which call this test gave O=C1c2ccccc2S(=O)(=O)c2c1cccc2[N+](=O)[O-] ?
inactive

Would you mind telling me which call this test gave Cc1ccc(/S(Cc2ccccc2)=N\S(=O)(=O)c2ccc(C)cc2)cc1 (configuration not stated) ?
inactive

Would you mind telling me which call this test gave N=C(N)N/N=C(/CC1OC(=O)c2ccccc21)c1ccc2ccccc2c1 (configuration not stated) ?
inactive

Would you mind telling me which call this test gave COc1nc(OC)c2c(=O)oc(-c3ccccc3)cc2n1 ?
inactive

Would you mind telling me which call this test gave O=S(=O)(Nc1nc2ccccc2nc1Nc1cccc2ccccc12)c1ccccc1 ?
inactive

Would you mind telling me which call this test gave NNC(=O)c1cc([N+](=O)[O-])ccc1NC(=O)C12CC3CC(CC(C3)C1)C2 ?
inactive

Would you mind telling me which call this test gave O=C1CC(c2ccco2)C2(C(=O)NC(=O)NC2=O)C(c2ccco2)C1 (configuration not stated) ?
inactive

Would you mind telling me which call this test gave CC(C)(C)C1CCC2(CC1)CCN(CCCN1CCOCC1)CC2 ?
inactive

Would you mind telling me which call this test gave CCCC(=O)NC1CCc2cc(OC)c(OC)c(OC)c2-c2ccc(OC)c(=O)cc21 (configuration not stated) ?
active

Would you mind telling me which call this test gave CC(=NNC(=S)Nc1ccccc1)c1cccc(C(C)=NNC(=S)Nc2ccccc2)n1 ?
inactive

Would you mind telling me which call this test gave Nc1c(-c2ccccc2)c2ccc([N+](=O)[O-])cc2c(=O)n1-c1cccc(C(=O)O)c1 ?
inactive

Would you mind telling me which call this test gave Nc1ccccc1C(=O)CCc1c[nH]c2ccccc12 ?
inactive

---

Provide the reported GI50 of each item.
tested on: U-251; assay: NCI tumour cell line growth inhibition, 48 h
Active and inactive are the calls of the source. Cut-off read from the data, not from the text of the source: active = GI50 up to about 1.1 µM and inactive = higher.

Please fill in: GI50 reported for Brc1cccc(C2SCc3nc4ccccc4n32)c1 (centres undefined) = 17 µM (inactive)

Please fill in: GI50 reported for COc1cc(-c2oc(/C=N/c3ccccc3)c([N+](=O)[O-])c2-c2ccc(O)c(OC)c2)ccc1O = 23.4 µM (inactive)

Please fill in: GI50 reported for CCOC(=O)C(=CNC(=S)N/N=C1\C(=O)Nc2ccccc21)C(=O)OCC = > 100 µM (inactive)

Please fill in: GI50 reported for Nc1ccc(C(=O)NN2C(=O)C(Cl)C2c2ccc([N+](=O)[O-])cc2)cc1 (centres undefined) = 2.13 µM (inactive)

Please fill in: GI50 reported for CCCCCCC(=O)C/C(CCC(=O)N(Cc1ccccc1)Cc1ccccc1)=N\Nc1ccc([N+](=O)[O-])cc1[N+](=O)[O-] = 54.1 µM (inactive)

Please fill in: GI50 reported for COC1/C=C\OC2(C)Oc3c(C)c(O)c4c(O)c(c(CN(C)C)c(O)c4c3C2=O)NC(=O)/C(C)=C\C=C/C(C)C(O)C(C)C(O)C(C)C(OC(C)=O)C1C (centres undefined) = 19.7 µM (inactive)

Please fill in: GI50 reported for O=C(Cc1nc2ccccc2o1)C(=O)Nc1cccc(C(F)(F)F)c1 = > 100 µM (inactive)

Please fill in: GI50 reported for COc1cc2c(cc1O)C(=O)O[C@@H]1CC=C3CCN(C)[C@H]3[C@H]21 = > 25 µM (inactive)

Please fill in: GI50 reported for O=C(C/C(=N/O)C(F)(F)F)c1cccs1 = > 100 µM (inactive)

Reference source: ChEMBL document CHEMBL1201862
